Solubility in Water, as active substance: recorded values
Protocol details: Solubility in water and phosphate buffers
Condition description: deionized water, 25 °C; AS = unmodified acid

- Compound: "CC[C@H](C)[C@H](N)C(=O)OC(C)C.O=C(O)c1ccccc1O [[L-IleOiPr][SA], L-isoleucine isopropyl ester salicylate]"
  Solubility in Water, as active substance (gAS dm^−3): 11.793
- Compound: "CSCC[C@H](N)C(=O)OC(C)C.O=C(O)c1ccccc1O [[L-MetOiPr][SA], L-methionine isopropyl ester salicylate]"
  Solubility in Water, as active substance (gAS dm^−3): 6.749
- Compound: "CC(C)OC(=O)C(N)C(C)C.O=C(O)c1ccccc1O [[L-ValOiPr][SA]]"
  Solubility in Water, as active substance (gAS dm^−3): 7.761
- Compound: "CC(C)OC(=O)[C@@H](N)[C@@H](C)O.O=C(O)c1ccccc1O [[L-ThrOiPr][SA], L-threonine isopropyl ester salicylate]"
  Solubility in Water, as active substance (gAS dm^−3): 17.925

---

Protocol details: Solubility in water and phosphate buffers
Condition description: pH 7.4, aqueous buffer
Response key: t means solubility thermodynamic >= 30 mg/mL; f means solubility thermodynamic < 30 mg/mL.

- Compound: "CSCC[C@H](N)C(=O)OC(C)C.O=C(O)c1ccccc1O [[L-MetOiPr][SA], L-methionine isopropyl ester salicylate]"
  Class name: "f"
- Compound: "O=C(O)c1ccccc1O [SA, salicylic acid, reference compound]"
  Class name: "f"
- Compound: "CC(C)OC(=O)[C@@H](N)[C@@H](C)O.O=C(O)c1ccccc1O [[L-ThrOiPr][SA], L-threonine isopropyl ester salicylate]"
  Class name: "t"
- Compound: "CC(C)OC(=O)C(N)C(C)C.O=C(O)c1ccccc1O [[L-ValOiPr][SA]]"
  Class name: "f"

---

log10 solubility thermodynamic: recorded values
Protocol details: physchem
Condition description: water
Measurement type: log10 solubility thermodynamic (log10 of the value in mg/mL)

- Molecule: "O=C(O)c1ccccc1O [SA, salicylic acid, reference compound]"
  log10 solubility thermodynamic: 0.58
- Molecule: "CSCC[C@H](N)C(=O)OC(C)C.O=C(O)c1ccccc1O [[L-MetOiPr][SA], L-methionine isopropyl ester salicylate]"
  log10 solubility thermodynamic: 1.20
- Molecule: "CC[C@H](C)[C@H](N)C(=O)OC(C)C.O=C(O)c1ccccc1O [[L-IleOiPr][SA], L-isoleucine isopropyl ester salicylate]"
  log10 solubility thermodynamic: 1.42
- Molecule: "CC(C)OC(=O)[C@@H](N)[C@@H](C)O.O=C(O)c1ccccc1O [[L-ThrOiPr][SA], L-threonine isopropyl ester salicylate]"
  log10 solubility thermodynamic: 1.59
- Molecule: "CC(C)OC(=O)C(N)C(C)C.O=C(O)c1ccccc1O [[L-ValOiPr][SA]]"
  log10 solubility thermodynamic: 1.22

---

zone of inhibition at 200000 µg/mL: recorded values
System: Micrococcus Luteus
Protocol details: Disc diffusion antimicrobial susceptibility test, Micrococcus luteus
Type: cell-based
Condition description: Micrococcus luteus, 24 h; solution transferred to disc 200 mg cm^−3; read-out: Inhibition diameter

- Compound: "COc1ccc2cc([C@H](C)C(=O)O)ccc2c1 [NAP, S-(+)-naproxen, reference compound]"
  Readout units: "mm"
  zone of inhibition at 200000 µg/mL: 6.8
- Compound: "CC(C)Cc1ccc(C(C)C(=O)O)cc1 (racemic) [IBU, (R,S)-ibuprofen, reference compound]"
  Readout units: "mm"
  zone of inhibition at 200000 µg/mL: 10.2
- Compound: "CSCC[C@H](N)C(=O)OC(C)C.O=C(O)c1ccccc1O [[L-MetOiPr][SA], L-methionine isopropyl ester salicylate]"
  Readout units: "mm"
  zone of inhibition at 200000 µg/mL: 6.3
- Compound: "CC(C(=O)O)c1cccc(C(=O)c2ccccc2)c1 (racemic) [KETO, (R,S)-ketoprofen, reference compound]"
  Readout units: "mm"
  zone of inhibition at 200000 µg/mL: 11.1
- Compound: "CC(C)OC(=O)[C@@H](N)[C@@H](C)O.O=C(O)c1ccccc1O [[L-ThrOiPr][SA], L-threonine isopropyl ester salicylate]"
  Readout units: "mm"
  zone of inhibition at 200000 µg/mL: 7.6
